Examples of molecules with documented TGI follow.
Test system: 786-0 renal
Measurement Protocol: NCI tumour cell line growth inhibition, 48 h

Molecule | TGI
O=C(Nc1cccc(C(F)(F)F)c1)Nc1cccc(C(F)(F)F)c1 | 4.14 µM
COc1ccc2ncnc(Nc3ccc(OCc4ccccc4)cc3)c2c1 | 10.9 µM
CC(=C(c1ccc(OCCN2CCCCC2)cc1)c1ccc(OCCN2CCCCC2)cc1)c1ccc(Cl)cc1 | 0.805 µM
Cc1cn(C2OC(CO[Si](C)(C)C(C)(C)C)C(N(C)O[Si](C)(C)C(C)(C)C)C2[Se]c2ccccc2)c(=O)[nH]c1=O (stereo not drawn) | 9.29 µM
CN(C)c1ccc(/C=N/NC(=S)Nc2ccccc2)cc1 | > 100 µM
Cc1nn(C(=O)Cc2ccccc2)c2c1C(c1ccccc1)SC(N)=N2 (stereo not drawn) | > 100 µM
CCOC(=O)c1ccc(-c2cc(C)no2)[nH]1 | > 100 µM
Cc1ccc(-[n+]2cc([O-])on2)cc1 | > 100 µM
COc1cc2c(/C=C3/C(=O)Nc4cccc(Cl)c43)c(Cl)[nH]c2cc1C | 4.15 µM
O=c1[nH]c(=O)c2c3n(cc2[nH]1)CCCCC3 | > 100 µM

Task: For the molecule OC(c1cc(C(F)(F)F)nc2c(C(F)(F)F)cccc12)C1CCCCN1 (stereo not drawn) , report TGI.
Output: 3.77 µM

Task: For the molecule CC(N)/C(N)=N/O (stereo not drawn) , report TGI.
Output: > 100 µM

Task: For the molecule CN(C)CC(O)c1ccc(/C=C/c2ccc(Cl)cc2)cc1 (stereo not drawn) , report TGI.
Output: 2.99 µM

Task: For the molecule Nc1nc(Cl)cc(OCC2(CO)CC=CC2)n1 , report TGI.
Output: > 100 µM

Task: For the molecule Nc1ncc2c(n1)-c1ccccc1OC2N1CCCCC1 (stereo not drawn) , report TGI.
Output: > 100 µM

Task: For the molecule C=C(C)C(=O)O[C@@H]1C[C@@]2(C)O[C@@H]2C[C@H](O)/C(C)=C/[C@H]2OC(=O)C(=C)[C@@H]21 , report TGI.
Output: > 100 µM

Task: For the molecule O=C1c2cc3c(cc2CC12Cc1ccc4c(c1C2=O)CCC4)CCCC3 (stereo not drawn) , report TGI.
Output: > 100 µM

Task: For the molecule CCOC(=O)CCCSCCCC(=O)CCCSCCCC(=O)OCC , report TGI.
Output: > 100 µM

###

Examples of compounds with documented TGI follow.
Tested on: HOP-62 NSCLC
Measurement Protocol: NCI tumour cell line growth inhibition, 48 h
*1 amine or outer side, *2 acyl side, *3 side chain or, on linkers, in order; H or OH if unused. Where a SMILES comes first, the peptide text is derived from it. Bridges are numbered along the chain shown (N, C = ends). Roman numbers before positions name the chains, in order. [ ]: non-standard residue; d: D form. Actinocin(9to1) = Cc1c2oc3c(C)ccc(C(=O)[*:1])c3nc-2c(C(=O)[*:2])c(N)c1=O; NMeV = CN[CH](C(=O)O)C(C)C; Sar = CNCC(=O)O
Reply with just the number (in µM).

Compound | Test Target | Unit String | TGI
Cc1c2oc3c(C)ccc(C(=O)NC4C(=O)NC(C(C)C)C(=O)N5CCCC5C(=O)N(C)CC(=O)N(C)C(C(C)C)C(=O)OC4C)c3nc-2c(C(=O)NC2C(=O)NC(C(C)C)C(=O)N3CCCC3C(=O)N(C)CC(=O)N(C)C(C(C)C)C(=O)OC2C)c(N)c1=O (stereo unspecified) (I: TVP[Sar][NMeV] / II: TVP[Sar][NMeV]; ester I:1-I:C, II:1-II:C; linker I:N-II:N via Actinocin(9to1); configuration not given here) | HOP-62 NSCLC | µM | 0.00696

Task: For the compound C#Cc1cccc(Nc2nc3cc([N+](=O)[O-])ccc3nc2Nc2ccc(O)cc2)c1 , report TGI.
Output: 3.35

Task: For the compound O=[N+]([O-])c1ccc2nc(Nc3ccccc3)c(Nc3ccccc3)nc2c1 , report TGI.
Output: 2.45

Task: For the compound Cc1[cH-]c(=O)n(-c2ccccc2)n1.[Au+].[Au].c1ccc([PH+](c2ccccc2)c2ccccc2)cc1.c1ccc([PH+](c2ccccc2)c2ccccc2)cc1 , report TGI.
Output: 54
